Could you please report measured IC50 for the items listed next?
system: Generation of Procollagen I C-Terminal Propeptide (PICP); test: Cell-based inhibition assay of generation of procollagen I C-terminal propeptide (PICP), PICP ELISA; conditions: Cardiac fibroblast, human cardiac fibroblasts, 24 to 48 hr, read-out: pIC50, PICP cellular inhibition assay (converted)

// query Name the reported IC50 value associated with the compound `CCCCC[C@@H](C(=O)NCNC(=O)c1ccc(-c2ccc(C(=O)OCCN(C)C)cc2)o1)[C@@H](CC)N(O)C=O`
// result < 398 nM

// query Entry to check: `CCCCC[C@@H](C(=O)NCNC(=O)c1ccc(-c2cc(OCC)cc(P(=O)(O)OCOC(=O)OC(C)C)c2)o1)[C@@H](CC)N(O)C=O`
// result < 398 nM

// query What about this compound? `CCCCC[C@@H](C(=O)NCNC(=O)c1ccc(-c2ccc(C(=O)N[C@@H](CC(=O)OCC)C(=O)OCC)c(OCC)c2)o1)[C@@H](CC)N(O)C=O`
// result < 398 nM

----------
Give IC50 for every item shown.
system: Generation of Procollagen I C-Terminal Propeptide (PICP); test: Cell-based inhibition assay of generation of procollagen I C-terminal propeptide (PICP), PICP ELISA; settings: Cardiac fibroblast, human cardiac fibroblasts, 24 to 48 hr, read-out: pIC50, PICP cellular inhibition assay (converted)

// query What IC50 appears in the records for this compound with Generation of Procollagen I C-Terminal Propeptide (PICP)? `CCCCC[C@@H](C(=O)NCNC(=O)c1ccc(-c2cc(OCC)cc(P(=O)(OCOC(C)=O)OCOC(C)=O)c2)o1)[C@@H](CC)N(O)C=O`
// result < 0.398 µM

// query Thanks! And `CCCCC[C@@H](C(=O)NCNC(=O)c1ccc(-c2ccc(C(=O)N[C@@H](CC(=O)O)C(=O)OCOC(=O)c3ccccc3)c(OCC)c2)o1)[C@@H](CC)N(O)C=O` ?
// result < 0.398 µM

// query Now give it for `CCCCC[C@@H](C(=O)NCNC(=O)c1ccc(-c2ccc(C(=O)OCC)cc2)o1)[C@@H](CC)N(O)C=O` too.
// result < 0.398 µM
